assayed system: T1, HLA-A*0201 on T2 cells (human)
T1 construct: whole, on cells; also called HLA-A2
experimental details: T2 cell binding assay, flow cytometry

binder	Relative affinity (1/RA)
YMSEKIFYV [SSX2 41-49 (K41Y, A42M)]	0.6
WVSEKIFYV [SSX2 41-49 (K41W, A42V)]	3
WLSEKIFYV [SSX2 41-49 (K41W, A42L)]	3.3
FVSEKIFYV [SSX2 41-49 (K41F, A42V)]	3.1
WMSEKIFYV [SSX2 41-49 (K41W, A42M)]	2.9
FISEKIFYV [SSX2 41-49 (K41F, A42I)]	2.7
YLSEKIFYV [SSX2 41-49 (K41Y, A42L)]	1.2
